Origin of the recorded values: patent US12319672B2

Here the recorded IC50 is given for each entry.
Biological target: human Gal-1 (hGal-1)
Sequence (P09382 2-135 limits assumed): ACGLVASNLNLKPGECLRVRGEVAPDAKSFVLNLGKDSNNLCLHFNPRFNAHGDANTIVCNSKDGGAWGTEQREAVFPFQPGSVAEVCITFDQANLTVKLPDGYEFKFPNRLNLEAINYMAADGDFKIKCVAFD
Assay: Competitive binding assay: binding of biotinylated hGal-1 to microplate-adsorbed asialofetuin (ASF)
Conditions: Activities on hGal-1; mean values of several measurements
Protocol: Evaluation of Compound Inhibitory Activity (IC50) The inhibitory activity of compounds is determined in competitive binding assays. This spectrophotometric assay measures the binding of biotinylated human Gal-3 (hGal-3) or human Gal-1 (hGal-1), respectively, to a microplate-adsorbed glycoprotein, asialofetuin (ASF) (Proc Natl Acad Sci USA. 2013 Mar. 26; 110(13):5052-7.). […] The calculated IC50 values may fluctuate depending on the daily assay performance. […]
API: value field is a number in µM; no unit string.

1) OC[C@H]1O[C@H](CC2CC(C3CCCC3)=NO2)[C@H](O)[C@@H](n2cc(-c3cc(F)c(F)c(F)c3)nn2)[C@H]1O (stereo partly drawn): 5.61
2) CO[C@@H]1[C@@H](n2cc(-c3cc(F)c(F)c(F)c3)nn2)[C@@H](O)[C@@H](CO)O[C@@H]1C[C@H]1CN(C2CCN(C(=O)OC(C)(C)C)CC2)C(=O)O1: 6.41
3) Cc1ccc(-c2cn([C@H]3[C@@H](O)[C@@H](CO)O[C@H](CC4CC(C5CCN(C(=O)OC(C)(C)C)CC5)=NO4)[C@@H]3O)nn2)c(F)c1F (stereo partly drawn): 3.25
4) CCOC(=O)N1CCC(c2cc(C[C@H]3O[C@H](CO)[C@H](O)[C@H](n4cc(-c5ccc(Br)c(F)c5F)nn4)[C@H]3OC)no2)CC1: 3.59
5) CO[C@@H]1[C@@H](n2cc(-c3cc(F)c(Cl)c(F)c3)nn2)[C@@H](O)[C@@H](CO)O[C@@H]1Cc1cc(C2CCN(S(C)(=O)=O)CC2)on1: 1.52

Record request: IC50 value, item CO[C@@H]1[C@@H](n2cc(-c3cc(F)c(F)c(F)c3)nn2)[C@@H](O)[C@@H](CO)O[C@@H]1Cc1cn(C2CCOCC2)nn1
1.76

Another compound: COc1ccc(C2=NOC(C[C@H]3O[C@H](CO)[C@H](O)[C@H](n4cc(-c5cc(F)c(F)c(F)c5)nn4)[C@H]3OC)C2)cc1 (stereo partly drawn)
14

Another compound: OC[C@H]1O[C@H](Cc2cc(C3CCN(c4nccs4)CC3)on2)[C@H](O)[C@@H](n2cc(-c3cc(F)c(F)c(F)c3)nn2)[C@H]1O
1.97

Another compound: CC(=O)N1CCC([C@H]2CC(C[C@H]3O[C@H](CO)[C@H](O)[C@H](n4cc(-c5cc(F)c(F)c(F)c5)nn4)[C@H]3O)=NO2)CC1
4.72

Another compound: CO[C@@H]1[C@@H](n2cc(-c3ccc(Br)c(F)c3F)nn2)[C@@H](O)[C@@H](CO)O[C@@H]1CC1CC(C2CCN(C(=O)OC(C)(C)C)CC2)=NO1 (stereo partly drawn)
0.79

Another compound: CC(C)(C)OC(=O)N1CCCC(c2cc(C[C@H]3O[C@H](CO)[C@H](O)[C@H](n4cc(-c5cc(F)c(F)c(F)c5)nn4)[C@H]3O)no2)C1 (stereo partly drawn)
6.48

Another compound: CO[C@@H]1[C@@H](n2cc(-c3cc(F)c(F)c(F)c3)nn2)[C@@H](O)[C@@H](CO)O[C@@H]1Cn1cc(C2CCN(C(=O)NC(C)(C)C)CC2)nn1
0.38
